Taken from PubChem BioAssay (NCI).

# System: K-562 leukemia
# Test method notes: NCI tumour cell line growth inhibition, 48 h
Kindly supply the reported TGI values for the records listed here.

Just so you know, measured TGI for C[Si]12OCCCN(CCO1)CCO2 came out at > 100 µM

Just so you know, measured TGI for OCc1ccc(Oc2c3ccccc3nc3occc23)cc1 came out at > 100 µM

Just so you know, measured TGI for C/C=C\C(CC(=O)NCCC1CN(C(=O)c2ccccc2)c2ccccc21)CC(=O)OC (stereo unspecified) came out at > 100 µM

Just so you know, measured TGI for CC1(C)[C@@H]2C[C@H]1C(Cc1cccc(C[C@H]3c4cc(-c5ccccn5)ncc4[C@H]4C[C@@H]3C4(C)C)c1)c1cc(-c3ccccn3)ncc12 (stereo partly specified) came out at > 100 µM

Just so you know, measured TGI for CC(=O)Nc1ccc(-c2nnc(SCC(=O)Nc3ccccc3C)o2)cc1 came out at > 100 µM

Just so you know, measured TGI for Oc1ccc(CN(Cc2ccc(C(F)(F)F)cc2)Cc2ccc(O)c3ncccc23)c2cccnc12 came out at > 100 µM

###

# Test system: HCC-2998 colon
# Test method notes: NCI tumour cell line growth inhibition, 48 h
Quantity kind: TGI

The molecule Cc1ccc(F)cc1NC(=O)c1cc(Cl)ccc1Nc1ccccc1 on HCC-2998 colon: TGI was > 100 µM

The molecule CC[C@@H]1CC[C@@H]2[C@H](CC[C@]3(C)[C@@H](OS(=O)(=O)c4ccc(C)cc4)CC[C@@H]23)[C@H]1CO on HCC-2998 colon: TGI was > 100 µM

The molecule CC1=CC2CC(C)C1(C)CCc1ccoc12 (stereo unspecified) on HCC-2998 colon: TGI was > 100 µM

The molecule CCOC(=O)C(=Cn1c(=S)[nH]c2ccc([N+](=O)[O-])cc21)C(=O)OCC on HCC-2998 colon: TGI was > 100 µM

The molecule COc1cc(C(SCc2ccccc2)SCc2ccccc2)ccc1O on HCC-2998 colon: TGI was > 10 µM

The molecule COc1ccc2c(c1)-c1oc3ccccc3c(=O)c1CO2 on HCC-2998 colon: TGI was > 100 µM

###

# Tested on: COLO 205 colon
# Test method notes: NCI tumour cell line growth inhibition, 48 h
Kindly supply the reported TGI values for the records listed here.

Just so you know, measured TGI for COc1ccc(/C=N/n2c(Cc3ccc(Cl)cc3)n[nH]c2=O)c(OC)c1 came out at > 100 µM

Just so you know, measured TGI for O=C1/C(=C/c2ccco2)NC(=S)N1CN1CCOCC1 came out at > 100 µM

Just so you know, measured TGI for O=C(Nc1cccc(-n2ccc3c(NC(=O)c4ccccc4)nccc32)c1)c1cc(N2CCOCC2)cc(C(F)(F)F)c1 came out at 0.472 µM

Just so you know, measured TGI for CC1CCC2(CC1)N=C1CCC(C)CC1C1(CCC(C)CC1)N2 (stereo unspecified) came out at > 100 µM

Just so you know, measured TGI for CC(C)(C)c1cc(C2COC(=O)COCC(=O)OCCOCCOCCO2)cc(C(C)(C)C)c1O (stereo unspecified) came out at > 100 µM

Just so you know, measured TGI for CCOC(=O)C(=Cn1c(=S)[nH]c2ccc([N+](=O)[O-])cc21)C(=O)OCC came out at > 100 µM

Just so you know, measured TGI for Cc1cc(C)c2c(N)c3cccc(C)c3nc2n1 came out at 2.17 µM

Just so you know, measured TGI for O=C1C[C@H](c2ccccc2)C2(C(=O)c3ccccc3C2=O)[C@H](c2ccccc2)C1 came out at > 100 µM

Just so you know, measured TGI for COc1ccc2c(c1)C(=O)c1c-2n(CCCN2CCOCC2)c(=O)c2cc([N+](=O)[O-])ccc12 came out at > 45.4 µM

Just so you know, measured TGI for COc1ccc(-n2c3c(c4c(CN(C)C)c(O)c(C)cc42)CCc2ccccc2C3=O)cc1 came out at > 100 µM

Just so you know, measured TGI for COc1cc2c(cc1OC)-c1c(c3ccc([N+](=O)[O-])cc3c(=O)n1CCCN)C2=O came out at 8.85 µM

Just so you know, measured TGI for CCOC(=O)[C@H]1Nc2ccc(Cl)cc2[C@H]2c3ccccc3O[C@H]21 came out at > 100 µM

Just so you know, measured TGI for CNC(=O)OCc1[nH]ccc2c(C)c3nc4ccc(OC)cc4c3cc12 came out at > 28.1 µM

Just so you know, measured TGI for CCOC(=O)C(=O)Nc1ccc(Cl)c(C(F)(F)F)c1 came out at > 100 µM

Just so you know, measured TGI for OCc1ccc(Oc2c3ccccc3nc3occc23)cc1 came out at 54.8 µM

Just so you know, measured TGI for CN(c1ccccc1Cl)S(=O)(=O)c1ccccc1[N+](=O)[O-] came out at > 100 µM

Just so you know, measured TGI for Nc1nc(SCCC/C=C/I)nc2c1ncn2C1OC(CO)C(O)C1O (stereo unspecified) came out at > 202 µM

Just so you know, measured TGI for CS(=O)(=O)O.[Ag] came out at 4.84 µM

Just so you know, measured TGI for CC(C)(C)OC(=O)NCC(=O)N1CCCN(C(=O)CNC(=O)OC(C)(C)C)CC1 came out at > 100 µM

Just so you know, measured TGI for O=C(/C=C/c1ccccc1O)/C=C/c1ccccc1O came out at 3.4 µM

Just so you know, measured TGI for COC(=O)c1cccc(C(=O)OC)c1 came out at > 100 µM

Just so you know, measured TGI for COc1ccc(C2(C3c4cc(OC)c(OC)cc4CCN3C)SCCCS2)cc1O (stereo unspecified) came out at > 100 µM

Just so you know, measured TGI for COc1cc(C(SCc2ccccc2)SCc2ccccc2)ccc1O came out at > 10 µM

Just so you know, measured TGI for COC(=O)c1ccccc1CC(Cc1ccccc1)C(=O)OC (stereo unspecified) came out at > 100 µM

Just so you know, measured TGI for CC(=O)Nc1ccc(-c2nnc(SCC(=O)Nc3ccccc3C)o2)cc1 came out at > 100 µM

Just so you know, measured TGI for CC(C)CCC[C@@H](C)[C@H]1CCC2C3=CCC4C(=O)C=CC(=O)C4C3CC[C@@]21C (stereo partly specified) came out at 0.183 µM
